Test system: PPC-1
Assay Overview: Cell viability SRB assay, 96 h
Assay type: cell-based
Conditions Used: Homo sapiens, PPC-1, 96 h
Description: Cell viability (LNCaP, PC-3 prostate, DU145, PPC-1, and TSU-Pr1 prostate cancer cell lines, HT-29 colon cancer cell line, and MCF-7 breast cancer cell line) was quantitated using the sulforhodamine B (SRB) assay after 96 h coincubation with different concentrations of compound in 96-well plates. Cell viability of leukemia cells (K562 and doxorubicin-resistant K562/Dox) was quantitated by MTT assay after 96 h coincubation with different concentrations of compound in 96-well plates. […]
Under this convention, 1 (yes) denotes IC50 strictly below 2 µM and 0 (no) denotes IC50 at or above 2 µM.

As a guide, the following entries are already answered.
{"Compound": "O=C(c1ccccc1)c1cccc(-c2cc3ccccc3[nH]2)c1 [Compound 80A]", "Tested On": "PPC-1", "Cat": "1 (yes)"}
{"Compound": "O=C(c1cccc(-c2cc3ccccc3[nH]2)c1)c1cc2ccccc2[nH]1", "Tested On": "PPC-1", "Cat": "1 (yes)"}
{"Compound": "c1ccc2c(Cc3c[nH]c4ccccc34)c[nH]c2c1 [Compound 128, di(1H-indol-3-yl)methane, reference compound]", "Tested On": "PPC-1", "Cat": "0 (no)"}
{"Compound": "O=C(c1cccc(-c2cc3ccccc3n2S(=O)(=O)c2ccccc2)c1)c1cc2ccccc2n1S(=O)(=O)c1ccccc1", "Tested On": "PPC-1", "Cat": "0 (no)"}
{"Compound": "c1ccc2[nH]ccc2c1", "Tested On": "PPC-1", "Cat": "0 (no)"}
{"Compound": "O=S(=O)(c1ccccc1)n1c(B(O)O)cc2ccccc21 [Compound 7, reference compound]", "Tested On": "PPC-1", "Cat": "0 (no)"}
{"Compound": "COc1cc(-c2cccc(C(=O)c3cc4ccccc4[nH]3)c2)cc(OC)c1OC", "Tested On": "PPC-1", "Cat": "0 (no)"}

Pending compound:
Could you please tell me whether IC50 recorded for `COc1ccc(C(=O)c2cccc(-c3cc4ccccc4[nH]3)c2)cc1OC` is less than 2 µM?
1 (yes)
